tested on: A549; experiment: Euclidean distance of Cell Painting phenotypic profile (signed KS, 77 features) to DMSO centroid (dimensionless distance); 5 or 10 uM (library dependent); higher = stronger phenotypic change vs DMSO (phenoactivity); details: 48 h
Structures can show the parent of a compound that is named as a salt.
Would you please tag the item Y when its Euclidean distance is 1 or above, and N when it is below?

Examples with answers:
Input line: Record C=CC(=O)Nc1cccc(Sc2nc(Nc3ccc(N4CCN(C)CC4)cc3)ncc2Cl)c1 ; criterion: Euclidean distance no lower than 1. Met?
Output line: Y

Input line: Same thing, different compound: O=C(NC1CCNCC1)c1n[nH]cc1NC(=O)c1c(Cl)cccc1Cl
Output line: Y

Input line: Another: CNC1(C)C2CCC(C2)C1(C)C (configuration not stated) [Mecamylamine Hydrochloride]
Output line: N

Continuing:
Input line: Dear colleague, could you confirm whether Cc1onc(-c2ccccc2)c1C(=O)N[C@@H]1C(=O)N2[C@@H]1SC(C)(C)[C@@H]2C(=O)O [Oxacillin sodium monohydrate] has Euclidean distance at or above 1?
Output line: Y

Input line: What about this compound? Cc1c(C(=O)NN2CCCCC2)nn(-c2ccc(Cl)cc2Cl)c1-c1ccc(Cl)cc1
Output line: Y

Input line: Can you check CONC(=O)c1ccccc1Nc1cc(Nc2cc(C)nn2C(C)C)ncc1Cl next?
Output line: Y

Input line: Try O=c1[nH]c(=O)n([C@H]2C[C@H](O)[C@@H](CO)O2)cc1F next.
Output line: Y

Input line: Input C[C@@H]1C[C@H]2[C@@H]3CCC4=CC(=O)C=C[C@]4(C)[C@@]3(F)[C@@H](O)C[C@]2(C)[C@@]1(O)C(=O)CO
Output line: Y

Input line: Same question for Cc1cn([C@@H]2C[C@@H](O)[C@H](CO)O2)c(=O)[nH]c1=O please.
Output line: N

Input line: Check OC(CN1CCN(c2cccc(Cl)c2)CC1)C(c1ccccc1)c1ccccc1 (configuration not stated) too.
Output line: Y

Input line: For CC1(C)[C@@H](O)CC[C@]2(C)[C@H]3C(=O)C=C4[C@@H]5C[C@@](C)(C(=O)O)CC[C@]5(C)CC[C@@]4(C)[C@]3(C)CC[C@@H]12 then?
Output line: N

Input line: Same question for O=C(Nc1cccc(C(F)(F)F)c1)Nc1cc(S(=O)(=O)NC2CC2)ccc1-c1ccsc1 please.
Output line: Y

Input line: Next entry: C/C=C(/C(=C/C)c1ccc(O)cc1)c1ccc(O)cc1
Output line: N

Input line: Try this compound too: Brc1c(NC2=NCCN2)ccc2nccnc12 [Brimonidine Tartrate]
Output line: N

Input line: Consider next the compound C[C@]12C=CC(=O)C=C1CC[C@@H]1[C@@H]2[C@@H](O)C[C@@]2(C)[C@H]1CC[C@]2(O)C(=O)CO in the same way.
Output line: Y

Input line: What do you get for O=C(CCc1ccc(O)cc1)c1c(O)cc(O)cc1O[C@@H]1O[C@H](CO)[C@@H](O)[C@H](O)[C@H]1O ?
Output line: Y

Input line: Next compound: CN1C(=O)[C@@H](NC(=O)c2n[nH]c(Cc3ccccc3)n2)COc2ccccc21
Output line: Y

* * *

system: FB; experiment: Euclidean distance of Cell Painting phenotypic profile (signed KS, 77 features) to DMSO centroid (dimensionless distance); 5 or 10 uM (library dependent); higher = stronger phenotypic change vs DMSO (phenoactivity); conditions: 48 h
Where a name gives a salt, the structure may show the parent alone.
Threshold check on Euclidean distance: at or above 1 gives Fulfilled, strictly below gives Not fulfilled.

Input line: Has O=c1cc(N2CCOCC2)oc2c1ccc1ccccc12 a recorded Euclidean distance greater than or equal to 1?
Output line: Fulfilled

Next:
Input line: Determine whether measured Euclidean distance meets or exceeds 1 for COc1ccc(-c2coc3cc(O)cc(O)c3c2=O)cc1
Output line: Not fulfilled

Input line: Here is the next compound: N[C@@H]1c2cccnc2[C@H](OC(=O)N2CCC(n3c(=O)[nH]c4ncccc43)CC2)CC[C@H]1c1cccc(F)c1F
Output line: Fulfilled

Input line: Repeat with COc1ccc2cc3[n+](cc2c1OC)CCc1cc2c(cc1-3)OCO2 [Berberine Sulfate]
Output line: Fulfilled

Input line: Try COc1ccc(-c2cc(=O)c3c(OC)c(OC)c(OC)c(OC)c3o2)cc1OC next.
Output line: Not fulfilled

Input line: // repeat for CCc1c2c(nc3ccc(O)cc13)-c1cc3c(c(=O)n1C2)COC(=O)[C@]3(O)CC and report
Output line: Fulfilled

Input line: Ok, now C[C@H]1COc2c(N3CCN(C)CC3)c(F)cc3c(=O)c(C(=O)O)cn1c23 [Levofloxacin hydrate]
Output line: Fulfilled

Input line: Can you handle COC(=O)C1=C(C#N)NC(C)=C(C(=O)OC(C)C)C1c1cccc([N+](=O)[O-])c1 (centres undefined) next?
Output line: Fulfilled

* * *

tested on: HEPG2; experiment: Euclidean distance of Cell Painting phenotypic profile (signed KS, 77 features) to DMSO centroid (dimensionless distance); 5 or 10 uM (library dependent); higher = stronger phenotypic change vs DMSO (phenoactivity); details: 48 h
We begin with a simple list: items and their reported Euclidean distance.
When you answer, write just the number.

Input line: What reported Euclidean distance corresponds to CN(CCOc1ccc(CC2SC(=O)NC2=O)cc1)c1ccccn1 (configuration not stated) [Rosiglitazone] on HEPG2?
Output line: 0.962

* * *

tested on: A549; assay: Euclidean distance of Cell Painting phenotypic profile (signed KS, 77 features) to DMSO centroid (dimensionless distance); 5 or 10 uM (library dependent); higher = stronger phenotypic change vs DMSO (phenoactivity); conditions: 48 h
Counter-ions that a name gives are not always drawn.
The reader will find reported Euclidean distance values listed item by item below.

Use these answered entries as a reference point.
Input line: Any idea what Euclidean distance was measured for COC(=O)C1=C(C)NC(C)=C(C(=O)OC2CCCN(Cc3ccccc3)C2)C1c1cccc([N+](=O)[O-])c1 (stereo not given) [Benidipine HCl] ?
Output line: 0.86

Input line: Also check CCN(CC)C(=S)SSC(=S)N(CC)CC
Output line: 1.78

New cases:
Input line: Could you share which Euclidean distance value was measured for CSc1ccc(C(=O)/C=C/c2cc(C)c(OC(C)(C)C(=O)O)c(C)c2)cc1 ?
Output line: 1.28

Input line: Would you mind doing Cc1cc(F)c(Nc2ncnc3cc(OCc4ccccc4)ccc23)cc1O as well?
Output line: 0.984

Input line: What do you have for C=C[C@H]1CN2CC[C@H]1C[C@@H]2[C@@H](O)c1ccnc2ccc(OC)cc12 [Quinidine sulfate] ?
Output line: 0.88

* * *

test system: DU145; assay: Euclidean distance of Cell Painting phenotypic profile (signed KS, 77 features) to DMSO centroid (dimensionless distance); 5 or 10 uM (library dependent); higher = stronger phenotypic change vs DMSO (phenoactivity); settings: 48 h
Counter-ions that a name gives are not always drawn.
Measured Euclidean distance, listed per entry for reference.
Provide a numeric answer; units are not to be included.

Examples with their reported Euclidean distance follow.
Input line: Need Euclidean distance of CC(C)(C)c1nc(-c2cccc(NS(=O)(=O)c3c(F)cccc3F)c2F)c(-c2ccnc(N)n2)s1 , thanks.
Output line: 1.31

Input line: Same read-out for COc1cccc(N2CCN(C3=Nc4c(F)cccc4C(CC(=O)O)N3c3cc(C(F)(F)F)ccc3OC)CC2)c1 (stereo not drawn) ?
Output line: 0.984

Input line: Now the same for CCOc1ccc(Cc2cc([C@@H]3O[C@H](CO)[C@@H](O)[C@H](O)[C@H]3O)ccc2Cl)cc1
Output line: 1.1

Input line: Also CC(C)(C)[C@H]1CC[C@H](CC2=C(O)C(=O)c3ccccc3C2=O)CC1 , if possible.
Output line: 1.17

Input line: Queued: O=C1CN2Cc3c(ccc(Cl)c3Cl)N=C2N1 [Anagrelide HCl]
Output line: 0.905

More entries:
Input line: Form field: reported Euclidean distance of N=C(N)NC(=O)c1nc(Cl)c(N)nc1N [Amiloride HCl]
Output line: 0.844

Input line: Subsequent entry: O=C(CCCCCN1C(=O)c2cccc3cccc(c23)C1=O)NO
Output line: 2.28

Input line: Next compound: CS(=O)(=O)Nc1ccc([N+](=O)[O-])cc1Oc1ccccc1 [Nimesulide]
Output line: 0.674

* * *

test system: DU145; assay: Euclidean distance of Cell Painting phenotypic profile (signed KS, 77 features) to DMSO centroid (dimensionless distance); 5 or 10 uM (library dependent); higher = stronger phenotypic change vs DMSO (phenoactivity); conditions: 48 h
Where a name gives a salt, the structure may show the parent alone.
Below is a list of entries, each paired with its recorded Euclidean distance value.

Input line: Recorded Euclidean distance for CCc1ccc(CCOc2ccc(CC3SC(=O)NC3=O)cc2)nc1 (centres undefined) , please?
Output line: 0.944

Others:
Input line: Field request: Euclidean distance | item: O=c1ncccn1[C@@H]1O[C@H](CO)[C@@H](O)[C@H]1O
Output line: 0.895

Input line: Okay, and CC(=O)Oc1cc2c(s1)CCN(C(C(=O)C1CC1)c1ccccc1F)C2 (centres undefined) [Prasugrel Hydrochloride] ?
Output line: 0.888

Input line: Continue with CC(C)(C)CC(C)(C)c1ccc(OCCOCC[N+](C)(C)Cc2ccccc2)cc1 [Benzethonium Chloride]
Output line: 2.15
